Provide the recorded normalized RNA/DNA level with ligand (log10) for the entries that follow.
B1: library; a variant is named by its letters at N, in order (parent)
chain: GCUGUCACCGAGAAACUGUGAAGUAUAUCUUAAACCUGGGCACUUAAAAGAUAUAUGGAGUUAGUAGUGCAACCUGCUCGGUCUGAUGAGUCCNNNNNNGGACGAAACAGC

# Variants of: B1
# Test method notes: normalized RNA/DNA level with ligand (relative to sTRSVctl = 100) (log10 (% of sTRSVctl)); HEK293T; ligand: cyclic di-GMP (c-di-GMP-II aptamer); ligand concentration (+) RNA-Seq: 1 mM; higher = less ribozyme self-cleavage, higher mRNA level
# Assay conditions: reporter: mCherry (pCS4076), ligand present: yes
Give the figure only, with no unit attached.

[Q] normalized RNA/DNA level with ligand (log10) for `ACUGGC` ?
[A] 1.79

[Q] normalized RNA/DNA level with ligand (log10) for `UCCACG` ?
[A] 1.87

[Q] normalized RNA/DNA level with ligand (log10) for `GCUUUU` ?
[A] 1.8

[Q] normalized RNA/DNA level with ligand (log10) for `UGCACA` ?
[A] 1.89

[Q] normalized RNA/DNA level with ligand (log10) for `UUUGUC` ?
[A] 1.9

[Q] normalized RNA/DNA level with ligand (log10) for `UGGCAU` ?
[A] 1.82

[Q] normalized RNA/DNA level with ligand (log10) for `AUCUGA` ?
[A] 1.71

[Q] normalized RNA/DNA level with ligand (log10) for `ACGUCU` ?
[A] 1.74

[Q] normalized RNA/DNA level with ligand (log10) for `CACGUU` ?
[A] 1.86

[Q] normalized RNA/DNA level with ligand (log10) for `GAAUAC` ?
[A] 1.78

[Q] normalized RNA/DNA level with ligand (log10) for `UACAAC` ?
[A] 1.8

[Q] normalized RNA/DNA level with ligand (log10) for `AGAUGC` ?
[A] 1.77

[Q] normalized RNA/DNA level with ligand (log10) for `CAGUGG` ?
[A] 1.86

[Q] normalized RNA/DNA level with ligand (log10) for `GUUGUG` ?
[A] 1.82

[Q] normalized RNA/DNA level with ligand (log10) for `UGGAAA` ?
[A] 1.83

[Q] normalized RNA/DNA level with ligand (log10) for `CCAAGA` ?
[A] 1.69

[Q] normalized RNA/DNA level with ligand (log10) for `CCAGGA` ?
[A] 1.71

[Q] normalized RNA/DNA level with ligand (log10) for `AUGCAU` ?
[A] 1.76

[Q] normalized RNA/DNA level with ligand (log10) for `UCGCUA` ?
[A] 1.7

[Q] normalized RNA/DNA level with ligand (log10) for `GAUCCG` ?
[A] 1.95

[Q] normalized RNA/DNA level with ligand (log10) for `AAUUCC` ?
[A] 1.88

[Q] normalized RNA/DNA level with ligand (log10) for `UUACGU` ?
[A] 1.8
